// data source = ChEMBL document CHEMBL1671725

- Tested on: Listeria monocytogenes
- test protocol: Antimicrobial activity against anrB-deficient Listeria monocytogenes EGD-e assessed as growth inhibition after 16 hrs by broth dilution method
- Format: functional
observed property: MIC (µg/mL)

Examples with their reported MIC follow.
CC1(C)S[C@@H]2[C@H](NC(=O)[C@H](N)c3ccccc3)C(=O)N2[C@H]1C(=O)O :: 0.5
CO/N=C(\C(=O)N[C@@H]1C(=O)N2C(C(=O)O)=C(COC(N)=O)CS[C@H]12)c1ccco1 :: 1.44

a = CC1(C)S[C@@H]2[C@H](NC(=O)Cc3ccccc3)C(=O)N2[C@H]1C(=O)O
b = CO/N=C(\C(=O)N[C@@H]1C(=O)N2C(C(=O)O)=C(COC(C)=O)CS[C@H]12)c1csc(N)n1
Between these two entries, a and b , state which has the higher MIC. Field: selected label. Fill in the label of the entry you choose. b

====

- Test system: Listeria monocytogenes
- test protocol: Antimicrobial activity against anrB-deficient Listeria monocytogenes EGD-e assessed as growth inhibition after 16 hrs by broth dilution method relative to wild type
- Type: functional
The reader will find reported fold change (FC) values listed item by item below.
Give the value as a plain number.

Reference set (2 entries):
CC1(C)S[C@@H]2[C@H](NC(=O)[C@H](N)c3ccccc3)C(=O)N2[C@H]1C(=O)O :: 2
CO/N=C(\C(=O)N[C@@H]1C(=O)N2C(C(=O)O)=C(COC(N)=O)CS[C@H]12)c1ccco1 :: 2

Return reported fold change (FC); argument: "CC1(C)S[C@@H]2[C@H](NC(=O)Cc3ccccc3)C(=O)N2[C@H]1C(=O)O" 2
